Catalogue of compounds with associated inhibition
protocol: PhoP regulon inhibitors, Salmonella typhi PhoP promoter GFP reporter, confirmatory (AID 1850);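 note: 0% = induced wells with vehicle and 100% = uninduced wells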
testContext: fluorescence, 4 h, at 50 µM, hits give high values
The campaign covered roughly 310,000 compounds. About 1,000 (0.32%) were called active. These entries were drawn from the full list. Measured potencies and affinities stand elsewhere.
State just the number; it will be interpreted in %.

compound: CCCOc1ccc(CCC(=O)N/N=C/c2ccc([N+](=O)[O-])o2)cc1
readoutName: inhibition
unitOfMeasure: %
quantitativeReadout: 3.44

compound: CC(=O)Nc1ccc(NC(=O)[C@H](C)NC(=O)c2ccco2)cc1
readoutName: inhibition
unitOfMeasure: %
quantitativeReadout: 2.64

compound: Cn1nnnc1SCC(=O)NCCCc1ccccc1
readoutName: inhibition
unitOfMeasure: %
quantitativeReadout: 0.19

compound: Cc1ccc(C)c(/C=C/C(=O)c2ccccc(=O)c2O)c1
readoutName: inhibition
unitOfMeasure: %
quantitativeReadout: -3.4

compound: Clc1ccc2c(c1)C(OC1CN3CCC1CC3)c1ccccc1CS2 (stereo not given)
readoutName: inhibition
unitOfMeasure: %
quantitativeReadout: -1.82

compound: Brc1ccc2c(c1)C(C1=NCCN1)c1ccccc1CS2 (stereo not given)
readoutName: inhibition
unitOfMeasure: %
quantitativeReadout: -3.48

compound: CC(=O)Nc1sc(N/N=C\c2cccc(Cl)c2)nc1-c1cccs1
readoutName: inhibition
unitOfMeasure: %
quantitativeReadout: -2.74

compound: O=C(Cn1nc(C(F)(F)F)c2c1CCC2)Nc1ccccc1C(F)(F)F
readoutName: inhibition
unitOfMeasure: %
quantitativeReadout: -9.91

compound: O=C(Oc1ccc(Cl)c2cccnc12)c1ccco1
readoutName: inhibition
unitOfMeasure: %
quantitativeReadout: -5.73

compound: CCOC(=O)C1(CC)CC(CSc2nc3ccccc3[nH]2)OC1=O (stereo not given)
readoutName: inhibition
unitOfMeasure: %
quantitativeReadout: 5.22

Now consider the entry below.
stdin: Please report inhibition for the following compound: "CCCCSCc1nc2ccccn2c1Br"
stdout: 0.1

###

protocol: PhoP regulon inhibitors, Salmonella typhi PhoP promoter GFP reporter, confirmatory (AID 1850);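 note: 0% = induced wells with vehicle and 100% = uninduced wells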
testContext: fluorescence, 4 h, at 50 µM, hits give high values
In all, about 310,000 compounds went through this assay and about 1,000 (0.32%) were called active. These entries were drawn from the full list. Measured potencies and affinities stand elsewhere.
readoutName: inhibition (%)
Form entry: value (%) — number only.

Field: example entries. Status: answers known.
compound: NCC(O)COCCC12CC3CC(CC(C3)C1)C2 (centres undefined)
quantitativeReadout: -0.98

compound: COc1ccc(OCC(O)CNC(C)c2ccccc2)cc1 (centres undefined)
quantitativeReadout: 1.46

compound: COc1cc(/C=N/NC(=O)c2ccncc2)ccc1OCC(=O)Nc1ccc(C)c(C)c1
quantitativeReadout: 8.17

Turning to the following compound.
stdin: Please give the documented inhibition of "CNC[C@H](CC1CCCCC1)NC[C@H](NCCC1CCCC1)[C@H](C)O"
stdout: 22.8

###

Each entry below lists one item and its recorded inhibition value.
protocol: PhoP regulon inhibitors, Salmonella typhi PhoP promoter GFP reporter, confirmatory (AID 1850);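 note: 0% = induced wells with vehicle and 100% = uninduced wells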
testContext: fluorescence, 4 h, at 50 µM, hits give high values
Screen size: about 310,000 compounds; about 1,000 (0.32%) were called active. The list is a sample of the results. Potency and affinity values are given separately.
Form entry: value (%) — number only.

The examples below pair each entry with its known result.
compound: Cc1occc1C(=O)N/N=C/c1ccc(Br)s1
quantitativeReadout: 1.4
--
compound: NCCCC[C@@H]1NC(=O)c2cc([N+](=O)[O-])cc(I)c2SC[C@@H](C(=O)NCC(N)=O)NC(=O)CNC1=O
quantitativeReadout: -0.813
--
compound: O=[N+]([O-])c1ccc(/C=N/N2CCCCC2)cc1
quantitativeReadout: 2.58
--
compound: Cc1ccc(S(=O)(=O)NCCC(=O)Nc2ccncc2)cc1C
quantitativeReadout: 9.54
--
compound: CN(CCc1ccccn1)C(=O)Nc1ccc(F)cc1
quantitativeReadout: -7.13

stdin: Recall and state the measured inhibition for COc1ccccc1COCC(O)CNCCc1ccc(C(F)(F)F)cc1 (stereo not drawn) .
stdout: 5.56

stdin: Read the entry "O=C1CSC(=S)N1c1cccc(Cl)c1" and write its reported inhibition.
stdout: -2.26

stdin: Write down inhibition measured for item "CC1=NCCc2c1[nH]c1ccccc21"
stdout: 5.56

Each recorded value in this set is attributed to PubChem BioAssay AID1850.
